Experiment: Plasma pharmacokinetics of AP after oral administration in rats
Assay type: in vivo
Conditions: Sprague-Dawley, rat, plasma, po, 120 mg/kg, rats, AP 120 mg/kg oral gavage, SO4^2- group (Na2SO4 200 mg/kg p.o. 1 week before), mean ± SD, n = 5
reported-metric: Cmax (ng/mL)
All answers are understood in ng/mL, so give the number only.

Prompt line: Kindly indicate its recorded Cmax. Item: C=C1CC[C@@H]2[C@](C)(CO)[C@H](O)CC[C@@]2(C)[C@@H]1C/C=C1/C(=O)OC[C@H]1O [AP, Andrographolide]
Response line: 490

====

Experiment: Plasma pharmacokinetics of AP after oral administration in mice
Assay type: in vivo
Settings: mouse, plasma, po, 100 mg/kg, mice, AP 100 mg/kg oral gavage, Inhibitor group (bromocriptine mesylate 20 mg/kg p.o. 1 week before), mean ± SD, n = 10
reported-metric: AUC(0-t)
Answer format: number, then unit.

Prompt line: Kindly indicate its recorded AUC(0-t). Item: C=C1CC[C@@H]2[C@](C)(CO)[C@H](O)CC[C@@]2(C)[C@@H]1C/C=C1/C(=O)OC[C@H]1O [AP, Andrographolide]
Response line: 906 ng·h/mL
